test system: PDE4 (Canis lupus familiaris); test: Inhibition of canine heart Phosphodiesterase 4 at 100 uM
readout: inhibition (%)

# example entries with known answers
| structure.smiles | tested.on | readout | number |
| --- | --- | --- | --- |
| Cc1cc(C)n(-c2[nH]nc(N3CCCCC3)c3c4ccccc4nc2-3)n1 | PDE4 (Canis lupus familiaris) | inhibition | 32.8 |
| CNNc1[nH]nc(-n2nc(C)cc2C)c2nc3ccccc3c1-2 | PDE4 (Canis lupus familiaris) | inhibition | 44.8 |
| Cc1cc(C)n(-c2[nH]nc(N3CCOCC3)c3c4ccccc4nc2-3)n1 | PDE4 (Canis lupus familiaris) | inhibition | 38 |
| Cc1cc(C)n(-c2n[nH]c(-n3nc(C)cc3C)c3c4ccccc4nc2-3)n1 | PDE4 (Canis lupus familiaris) | inhibition | 29.5 |
| COc1ccccc1N1CCN(c2n[nH]c(N3CCN(c4ccccc4OC)CC3)c3c4ccccc4nc2-3)CC1 | PDE4 (Canis lupus familiaris) | inhibition | 7.52 |
| Cc1cc(C)n(-c2n[nH]c(N3CCN(C)CC3)c3c4ccccc4nc2-3)n1 | PDE4 (Canis lupus familiaris) | inhibition | 33.4 |

1. CCOC(=O)c1n[nH]c2c3nc4ccccc4c-3c(Cl)nn12
2. Cc1cc(C)n(-c2[nH]nc(NN)c3c4ccccc4nc2-3)n1
3. NNC(=O)c1n[nH]c2c3nc4ccccc4c-3c(NN)nn12
4. COc1ccc(N2CCN(c3[nH]nc(-n4nc(C)cc4C)c4nc5ccccc5c3-4)CC2)cc1
Q: Rank entries according to their inhibition, from the largest number down. In your reply, arrange the labels in the requested order.
A: 3, 1, 2, 4
(3: 55.9%, 1: 37%, 2: 9.39%, 4: 4.8%)

---

inhibition at 100 µM: recorded values
organism: Cavia porcellus; assay: Inhibition of arachidonic acid induced platelet aggregation in guinea pig whole blood at 10e-4 M; assay type: functional
Express the result in % but write the number alone.

# example entries with known answers
| structure.smiles | unit.annotation | inhibition at 100 µM |
| --- | --- | --- |
| NNC(=O)c1n[nH]c2c3nc4ccccc4c-3c(NN)nn12 | % | 38.3 |
| Cc1cc(C)n(-c2[nH]nc(N3CCOCC3)c3c4ccccc4nc2-3)n1 | % | 99.4 |
| Cc1cc(C)n(-c2[nH]nc(NN)c3c4ccccc4nc2-3)n1.Cl | % | 83 |
| c1ccc2c(c1)[nH]c1c(-c3ncc[nH]3)nnc(-c3ncc[nH]3)c12 | % | 100 |
| COc1ccccc1N1CCN(c2n[nH]c(N3CCN(c4ccccc4OC)CC3)c3c4ccccc4nc2-3)CC1 | % | 26.6 |
| CNNc1[nH]nc(-n2nc(C)cc2C)c2nc3ccccc3c1-2 | % | 7.86 |

Q: Tell me the measured inhibition at 100 µM of Cc1cc(C)n(-c2[nH]nc(N3CCCCC3)c3c4ccccc4nc2-3)n1 , please.
A: 99.4
